All values here come from PubChem BioAssay (NCI).

Listed next: entries and their corresponding TGI.
Tested on: M19-MEL melanoma
Assay: NCI tumour cell line growth inhibition, 48 h

In: System M19-MEL melanoma. Read-out TGI. Item N#CC(C#N)=c1ccc(=C2N3CCCC3CN2C23CC4CC(CC(C4)C2)C3)cc1 (stereo not given) . Report value.
Out: > 100 µM

In: System M19-MEL melanoma. Read-out TGI. Item CCc1cccc(CC)c1NC(=O)C(=O)Cc1nc2ccccc2o1 . Report value.
Out: > 100 µM

In: System M19-MEL melanoma. Read-out TGI. Item COc1cc(-c2ccc(N=Nc3c(S(=O)(=O)O)cc4cc(S(=O)(=O)O)cc(N)c4c3O)c(OC)c2)ccc1N=Nc1c(S(=O)(=O)O)cc2cc(S(=O)(=O)O)cc(N)c2c1O . Report value.
Out: > 100 µM

In: System M19-MEL melanoma. Read-out TGI. Item CC(=O)Nc1ccc(C2C(C(=O)Nc3ccccc3C)=C(C)NC(C)=C2C(=O)Nc2ccccc2C)cc1 . Report value.
Out: > 100 µM

In: System M19-MEL melanoma. Read-out TGI. Item COc1cc(C(C)c2cc3c(cc2OCCN)OCO3)cc(OC)c1OC (stereo not given) . Report value.
Out: > 100 µM

New cases:
In: System M19-MEL melanoma. Read-out TGI. Item O=C1C=C(Nc2ccccc2C(=O)c2ccccc2)c2ccccc2C1=O . Report value.
Out: 33.2 µM

In: System M19-MEL melanoma. Read-out TGI. Item Nc1ccc(N)c2c1C(=O)c1ccccc1C2=O . Report value.
Out: > 100 µM

In: System M19-MEL melanoma. Read-out TGI. Item COC(=O)CCC(NC(=S)N/N=C(\C)c1ccco1)C(=O)OC (stereo not given) . Report value.
Out: > 100 µM

In: System M19-MEL melanoma. Read-out TGI. Item COc1ccc(C(=O)Cc2ccc(Cl)cc2)cc1OC . Report value.
Out: > 100 µM

In: System M19-MEL melanoma. Read-out TGI. Item CCCCSC(=CC(=O)c1cccc(C(=O)C=C(SCCCC)SCCCC)n1)SCCCC . Report value.
Out: > 100 µM

###

Listed next: entries and their corresponding TGI.
System: IGROV1 ovarian
Test: NCI tumour cell line growth inhibition, 48 h

In: Entry CC(=O)Oc1cc2oc(=O)cc(C)c2cc1OC(C)=O needs its TGI filled in; supply it.
Out: > 100 µM

In: Entry COc1cc(-c2ccc(N=Nc3c(S(=O)(=O)O)cc4cc(S(=O)(=O)O)cc(N)c4c3O)c(OC)c2)ccc1N=Nc1c(S(=O)(=O)O)cc2cc(S(=O)(=O)O)cc(N)c2c1O needs its TGI filled in; supply it.
Out: > 100 µM

In: Entry Cc1cc2nc3c4cc(C=O)ccc4n(CCN(C)C)c3nc2cc1C needs its TGI filled in; supply it.
Out: 6.39 µM

In: Entry Cc1ccc(/C=C2\CN(C)CC3=C2NC(=S)NC3c2ccc(C)cc2)cc1 (centres undefined) needs its TGI filled in; supply it.
Out: > 100 µM

In: Entry C=C1CC(Cn2cc(C)c(=O)[nH]c2=O)(c2ccc(Cl)cc2)OC1=O (centres undefined) needs its TGI filled in; supply it.
Out: 3.41 µM

In: Entry C[C@]12CC[C@H](O)CC1=CC[C@@H]1C2CC[C@]2(C)NC(=O)C(C#N)CC12 (some centres undefined) needs its TGI filled in; supply it.
Out: > 100 µM

In: Entry CC(C1CCCC1=O)C1CCCC1=O (centres undefined) needs its TGI filled in; supply it.
Out: > 100 µM

In: Entry Cc1cc(C)nc(NS(=O)(=O)c2ccc(NNc3c4ccccc4nc4c(C(=O)Nc5ccc(S(=O)(=O)N=C(N)N)cc5)cccc34)cc2)n1 needs its TGI filled in; supply it.
Out: > 100 µM

In: Entry Cc1ccc(N=Nc2c(-c3ccccc3)nn(C(=O)CC(=O)Nc3ccc(Cl)cc3)c2-c2ccccc2)cc1 needs its TGI filled in; supply it.
Out: > 100 µM

###

System: COLO 205 colon
Assay: NCI tumour cell line growth inhibition, 48 h
assay_readout: TGI

Guide cases for TGI, answers given:
In: Entry CCC[CH2][Sn]1([CH2]CCC)[O]CC(c2ccccn2)C[O]1 needs its TGI filled in; supply it.
Out: 31.7 µM

In: Entry COc1cc(-c2ccc(N=Nc3c(S(=O)(=O)O)cc4cc(S(=O)(=O)O)cc(N)c4c3O)c(OC)c2)ccc1N=Nc1c(S(=O)(=O)O)cc2cc(S(=O)(=O)O)cc(N)c2c1O needs its TGI filled in; supply it.
Out: > 100 µM

In: Entry CC(C)(C)N1C(=O)N=[N+](/C(=C(\c2ccccc2)n2nc([O-])n(C(C)(C)C)c2=O)c2ccccc2)C1=O needs its TGI filled in; supply it.
Out: > 100 µM

In: Entry COc1cc(C(=O)/C=C/c2c(C)n([O-])c3ccc(C(F)(F)F)cc3[n+]2=O)cc(OC)c1OC needs its TGI filled in; supply it.
Out: 2.88 µM

In: Entry CC(C)C(O)(C(=O)OCN1C(=O)C2C3C=CC(C2C1=O)C1C2C(=O)N(COC(=O)C(O)(C(C)C)C(C)O)C(=O)C2C31)C(C)O (stereo not drawn) needs its TGI filled in; supply it.
Out: > 100 µM

New cases:
In: Entry Cc1ccc2cc3c(N)c4c(C)ccc(C)c4nc3nc2c1 needs its TGI filled in; supply it.
Out: 20 µM

In: Entry CC(C)CC(N=Cc1nc(-c2ccccc2)oc1O)C(=O)O (stereo not drawn) needs its TGI filled in; supply it.
Out: > 100 µM

In: Entry CCN(CC)S(=O)(=O)c1ccc2nc(NC(=O)OC)[nH]c2c1 needs its TGI filled in; supply it.
Out: > 100 µM

###

Test system: OVCAR-4 ovarian
Test: NCI tumour cell line growth inhibition, 48 h
assay_readout: GI50

Guide cases for GI50, answers given:
In: Entry COc1ccc(C(O)c2cc3c(N)c(C(=O)Nc4ccc(Br)cc4)sc3nc2C)cc1 (stereo not drawn) needs its GI50 filled in; supply it.
Out: 2.01 µM

In: Entry Cc1ccc2c(c1)c(C1=C(c3cn(C)c4ccccc34)C(=O)NC1=O)cn2C needs its GI50 filled in; supply it.
Out: 3.79 µM

In: Entry Cc1ccc2cc3c(N)c4c(C)ccc(C)c4nc3nc2c1 needs its GI50 filled in; supply it.
Out: 3.79 µM

New cases:
In: Entry Cc1nc2ccccn2c1NC(=O)NNC(=S)Nc1ccc(Cl)cc1 needs its GI50 filled in; supply it.
Out: > 100 µM

In: Entry COc1ccc(/C=C/C(=O)c2ccc(NC(=O)CSc3nnc(-c4ccc(OC)c(OC)c4)n3-c3ccccc3)cc2)cc1 needs its GI50 filled in; supply it.
Out: 1.96 µM

In: Entry O=C1C=C(Nc2ccc([N+](=O)[O-])cc2)c2ccccc2C1=O needs its GI50 filled in; supply it.
Out: 2.07 µM

In: Entry O=C(/C=C/c1cccc(O)c1)c1cccc(-n2cc(-c3ccc(Cl)cc3)[nH]c2=O)c1 needs its GI50 filled in; supply it.
Out: 2.21 µM

In: Entry Nc1nonc1-c1nc2cnccc2n1C1CCCCC1 needs its GI50 filled in; supply it.
Out: > 16.6 µM

###

Listed next: entries and their corresponding TGI.
Tested on: KM12 colon
Experiment: NCI tumour cell line growth inhibition, 48 h

Guide cases for TGI, answers given:
In: Entry Nc1nonc1-c1nc2cnccc2n1C1CCCCC1 needs its TGI filled in; supply it.
Out: > 25 µM

In: Entry O=C(CCc1ccc(O)cc1)NCCc1cccc(O)c1 needs its TGI filled in; supply it.
Out: > 50 µM

New cases:
In: Entry O=c1ccn(C2OC(CN(O)CCC3C(O)C(CO)OC3n3ccc(=O)[nH]c3=O)C(O)C2O)c(=O)[nH]1 (stereo not given) needs its TGI filled in; supply it.
Out: > 100 µM

In: Entry CC(=O)c1ccc(NC(=O)/C(CC(=O)/C=C/c2ccccc2)=N/NC(N)=S)cc1 needs its TGI filled in; supply it.
Out: > 100 µM

In: Entry COCn1cnc2c(=O)n(-c3ccc(C)cc3)c(=S)n(-c3ccc(C)cc3)c21 needs its TGI filled in; supply it.
Out: > 100 µM

###

Tested on: EKVX NSCLC
Assay: NCI tumour cell line growth inhibition, 48 h
Listed next: entries and their corresponding GI50.

Guide cases for GI50, answers given:
In: Entry Cc1nc2ccccn2c1NC(=O)NNC(=S)Nc1ccc(Cl)cc1 needs its GI50 filled in; supply it.
Out: > 100 µM

In: Entry CC(=O)Nc1cccc(C#Cc2cncnc2Nc2ccc(OCc3cccc(F)c3)c(Cl)c2)n1 needs its GI50 filled in; supply it.
Out: 0.475 µM

In: Entry CC(=O)N1CCN([C@H]2CCC[C@@H](NC(=O)c3cc4c(F)ccc(C)c4[nH]3)C2)CC1 needs its GI50 filled in; supply it.
Out: 10.7 µM

In: Entry Clc1ccc(-c2ccc(CNCC3CCNCC3)o2)c(-c2ccccc2)c1 needs its GI50 filled in; supply it.
Out: 1.59 µM

In: Entry C=CCSSC1N=CNc2nc[nH]c21 (stereo not drawn) needs its GI50 filled in; supply it.
Out: 49.4 µM

In: Entry CC/C(=C(\c1ccc(Cl)cc1)c1ccc(OCCN2CCCCC2)cc1)c1ccc(O)cc1 needs its GI50 filled in; supply it.
Out: 1.91 µM

In: Entry CCCCCCC[CH2][Sn]([Cl])([Cl])[CH2]CCCCCCC needs its GI50 filled in; supply it.
Out: 10.4 µM

Shifting focus to the compound that follows.
In: Entry COc1ccccc1N1CCN(CC(O)COc2c(Br)c(Br)c(Br)c3c2OC(C)(C)C3)CC1 (stereo not drawn) needs its GI50 filled in; supply it.
Out: 8.85 µM
